tested.on: T1, canine FcRn with a poly-His tag / canine B2M heterodimer complex (canine, biotinylated where immobilised on the Biacore chip)
T1 construct: Made in HEK cells, Ni-NTA purified; also called canine FcRn/B2M complex; soluble canine FcRn/B2M complex
T1 chain: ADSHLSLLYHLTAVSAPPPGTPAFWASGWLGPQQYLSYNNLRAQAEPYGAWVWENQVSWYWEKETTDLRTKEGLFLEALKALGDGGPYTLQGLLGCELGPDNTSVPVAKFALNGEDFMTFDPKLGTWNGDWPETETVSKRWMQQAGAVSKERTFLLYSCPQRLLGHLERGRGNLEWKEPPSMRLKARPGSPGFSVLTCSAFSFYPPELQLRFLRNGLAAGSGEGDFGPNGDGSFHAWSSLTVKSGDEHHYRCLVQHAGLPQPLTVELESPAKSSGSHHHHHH
T1 b2m: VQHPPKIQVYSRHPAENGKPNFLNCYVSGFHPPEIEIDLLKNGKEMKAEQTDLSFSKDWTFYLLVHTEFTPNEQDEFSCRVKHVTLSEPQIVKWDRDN
test: SPR (Biacore T200), steady state, 25 C, pH 6.0; SASA-tagged Fc polypeptide immobilised on CM5 chip, canine FcRn/B2M complex 12.5-200 nM as analyte
Exercise: state measured pKd for each of the binders provided.
One number for each entry, as −log10 of the molar value.

variant canine IgG-B Fc polypeptide L(23)F (other, E. coli expressed, with SASA tag; also called F00; not shown: SASA tag) PAPEMLGGPSVFIFPPKPKDTLFIARTPEVTCVVVDLDPEDPEVQISWFVDGKQMQTAKTQPREEQFNGTYRVVSVLPIGHQDWLKGKQFTCKVNNKALPSPIERTISKARGQAHQPSVYVLPPSREELSKNTVSLTCLIKDFFPPDIDVEWQSNGQQEPESKYRTTPPQLDEDGSYFLYSKLSVDKSRWQRGDTFICAVMHEALHNHYTQESLSHSPGK | 6.44

In the following, a different binder is considered.
Q. Kindly indicate its recorded pKd. Item: variant canine IgG-B Fc polypeptide L(23)M (other, not shown: SASA tag) PAPEMLGGPSVFIFPPKPKDTLMIARTPEVTCVVVDLDPEDPEVQISWFVDGKQMQTAKTQPREEQFNGTYRVVSVLPIGHQDWLKGKQFTCKVNNKALPSPIERTISKARGQAHQPSVYVLPPSREELSKNTVSLTCLIKDFFPPDIDVEWQSNGQQEPESKYRTTPPQLDEDGSYFLYSKLSVDKSRWQRGDTFICAVMHEALHNHYTQESLSHSPGK
A. 6.39
